Each recorded value in this set is attributed to patent US4837227A.

Listed next: entries and their corresponding log10(ED50).
System: tetrabenazine-induced depression (ptosis) in mice
METHOD SUMMARY: inhibition of tetrabenazine-induced depression (ptosis) in mice
Type: in vivo
CONDITION: Mus musculus, ip, intraperitoneal dose, read-out: ED50, 50% inhibition of the ptosis of the tetrabenazine-induced depression
Annotation: log10 of ED50, mg/kg basis.

Observe how each entry below is paired with its result.
COMPOUND	TEST VALUE
CNCCSC1=Cc2ccccc2Oc2ccccc21.O=C(O)C(=O)O	0.53
Br.CN(C)CCSC1=Cc2ccccc2Oc2ccc(F)cc21	0.63
CNCCSC1=Cc2ccccc2Oc2ccc(F)cc21.O=C(O)/C=C\C(=O)O	-0.52
CN(C)CCSC1Cc2ccccc2Oc2ccc(Cl)cc21.O=C(O)C(=O)O (centres unmarked)	0.54

Turning now to a further compound:
**Query** Print tetrabenazine-induced depression (ptosis) in mice log10(ED50) for CN(C)CCSC1Cc2ccccc2Oc2ccccc21 (centres unmarked) .
**Result** 0.85

* * *

METHOD SUMMARY: stability study, gas chromatographic assay (acid stability)
Assay type: physicochemical
CONDITION: water, concentrated hcl; 60 min, ambient temperature, 2.0 ml stock + 0.2 ml concentrated hydrochloric acid; product 10,11-dihydro-10-oxodibenz[b,f]oxepin; read-out: % Increase in decomposition product
MEASUREMENT LABEL: degraded at 1 h (%)
Provide the reading as a plain figure in %.

**Query** Given the molecule CN(C)CCOC1=Cc2ccccc2Oc2ccc(F)cc21 , write its reported degraded at 1 h.
**Result** 2.16

* * *

METHOD SUMMARY: stability study, gas chromatographic assay (acid stability)
Format: physicochemical
CONDITION: water, concentrated hcl, 0.2 ml concentrated hydrochloric acid, warming (not reflux) for 2 minutes; read-out: decomposed to 10,11-dihydro-10-oxodibenz[b,f]oxepin by GC analysis
MEASUREMENT LABEL: degraded at 2 min (%)
Provide the reading as a plain figure in %.

**Query** Given the compound CN(C)CCOC1=Cc2ccccc2Oc2ccc(F)cc21 , write its reported degraded at 2 min.
**Result** 87.2

* * *

System: supramaximal electro shock in mice
METHOD SUMMARY: protection from supramaximal electro shock in mice (anticonvulsant)
Assay type: in vivo
CONDITION: Mus musculus, ip, intraperitoneal dose, read-out: ED50, approximately 50% protective from the effect of supramaximal electro shock
Listed next: entries and their corresponding ED50.
Provide the reading as a plain figure in mg/kg.

Observe how each entry below is paired with its result.
COMPOUND	ED50 (mg/kg)
Br.CN(C)CCSC1=Cc2ccccc2Oc2ccc(F)cc21	9.2
CNCCSC1=Cc2ccccc2Oc2ccc(F)cc21.O=C(O)/C=C\C(=O)O	9.9
CN(C)CCSC1Cc2ccccc2Oc2ccc(Cl)cc21.O=C(O)C(=O)O (stereo not drawn)	19.4
CN(C)CCSC1Cc2ccccc2Oc2ccccc21 (stereo not drawn)	7.7
CNCCSC1=Cc2ccccc2Oc2ccccc21.O=C(O)C(=O)O	21

**Query** Given the compound CN(C)CCSC1Cc2ccccc2Oc2ccc(F)cc21.O=C(O)C(=O)O (stereo not drawn) , write its reported ED50.
**Result** 9

* * *

METHOD SUMMARY: stability study, gas chromatographic assay (acid stability)
Type: physicochemical
CONDITION: water, concentrated hcl; 2 min, ambient temperature, 2.0 ml stock + 0.2 ml concentrated hydrochloric acid; product 10,11-dihydro-10-oxodibenz[b,f]oxepin; read-out: % Increase in decomposition product
MEASUREMENT LABEL: degraded at 2 min
Include the unit after the number when you answer.

**Query** Given the compound CN(C)CCOC1=Cc2ccccc2Oc2ccc(F)cc21 , write its reported degraded at 2 min.
**Result** 0.35%
